property.label: melting point

Some compounds with known melting point results, for comparison:
CC(=NNc1nc(C)c(N=Nc2ccc(C)cc2)s1)c1ccc(NS(=O)(=O)c2ccc3oc(=O)ccc3c2)cc1 [Compound 11d]
258 to 259 °C
NS(=O)(=O)c1ccc(NS(=O)(=O)c2ccc3oc(=O)ccc3c2)cc1 [Compound 4a]
266 to 268 °C
CC(=NNc1nc(C)cs1)c1ccc(NS(=O)(=O)c2ccc3oc(=O)ccc3c2)cc1 [Compound 11a]
257 to 259 °C
CC(=NNc1c(Cl)cc(Cl)cc1Cl)c1ccc(NS(=O)(=O)c2ccc3oc(=O)ccc3c2)cc1 [Compound 8c]
259 to 260 °C
CC(=NNc1ccccc1)c1ccc(NS(=O)(=O)c2ccc3oc(=O)ccc3c2)cc1 [Compound 8a]
178 to 180 °C
CC(=NNc1nc(C)c(N=Nc2ccc(Cl)cc2)s1)c1ccc(NS(=O)(=O)c2ccc3oc(=O)ccc3c2)cc1 [Compound 11c]
250 to 252 °C
CC(=NNC(N)=S)c1ccc(NS(=O)(=O)c2ccc3oc(=O)ccc3c2)cc1 [Compound 9]
253 to 254 °C

Would you kindly look at the next entry?
-- ask Provide melting point value for the following compound: O=c1ccc2cc(S(=O)(=O)Nc3ccc(S(=O)(=O)Nc4ccccn4)cc3)ccc2o1 [Compound 4b]
-- reply 237 to 239 °C

###

- Tested on: HepG2 hepatocellular carcinoma
- method.summary: In vitro anti-proliferative activity, SRB assay, HepG2
- Format: cell-based, human
- measurement.context: Homo sapiens, HepG2; 72 h incubation, SRB; mean ± SE of three experiments; read-out: IC50 HepG2
property.label: pIC50
// pIC50 here means minus log10 of the molar concentration (mol/L)

-- ask Provide pIC50 value for the following compound: "CC(=NNc1ccc([N+](=O)[O-])cc1[N+](=O)[O-])c1ccc(NS(=O)(=O)c2ccc3oc(=O)ccc3c2)cc1"
-- reply 4.93

###

- System: HepG2 hepatocellular carcinoma
- method.summary: In vitro anti-proliferative activity, SRB assay, HepG2
- Type: cell-based, human
- measurement.context: Homo sapiens, HepG2, 72 h, 72 h incubation, SRB; mean ± SE of three experiments; read-out: IC50 HepG2
property.label: IC50 (µM)
Kindly provide the numeric value in µM only, without the unit symbol.

Some molecules with known IC50 results, for comparison:
CCOC(=O)c1sc(NN=C(C)c2ccc(NS(=O)(=O)c3ccc4oc(=O)ccc4c3)cc2)nc1C [Compound 11b]
54.3
CC(=NNC(N)=S)c1ccc(NS(=O)(=O)c2ccc3oc(=O)ccc3c2)cc1
163

Would you kindly look at the next entry?
-- ask GET IC50 where system = HepG2 hepatocellular carcinoma and item = CC(=NNc1nc(C)c(N=Nc2ccc(Cl)cc2)s1)c1ccc(NS(=O)(=O)c2ccc3oc(=O)ccc3c2)cc1 [Compound 11c]
-- reply 72.5

###

property.label: melting point

CC(=NNC1=NC(=O)C(CC(=O)O)S1)c1ccc(NS(=O)(=O)c2ccc3oc(=O)ccc3c2)cc1 (centres unmarked) [Compound 15c]
193 to 194 °C
CC(=NNc1ccc([N+](=O)[O-])cc1[N+](=O)[O-])c1ccc(NS(=O)(=O)c2ccc3oc(=O)ccc3c2)cc1
269 to 270 °C
CC(=NNc1nc(-c2cc3ccccc3oc2=O)cs1)c1ccc(NS(=O)(=O)c2ccc3oc(=O)ccc3c2)cc1 [Compound 13b]
201 to 202 °C
CC(=NNS(=O)(=O)c1ccc(C)cc1)c1ccc(NS(=O)(=O)c2ccc3oc(=O)ccc3c2)cc1
163 to 165 °C

Would you kindly look at the next entry?
-- ask Provide melting point value for the following molecule: CCOC(=O)c1sc(NN=C(C)c2ccc(NS(=O)(=O)c3ccc4oc(=O)ccc4c3)cc2)nc1C [Compound 11b]
-- reply 180 to 182 °C

###

- Test system: MCF-7 breast cancer
- method.summary: In vitro anti-proliferative activity, SRB assay, MCF-7
- Assay type: cell-based, human
- measurement.context: Homo sapiens, MCF7, 72 h incubation, mean ± SE of three experiments
Each entry below carries its reported IC50.
Kindly provide the numeric value in µM only, without the unit symbol.

-- ask Provide IC50 value for the following compound: COc1cccc2c1C(=O)c1c(O)c3c(c(O)c1C2=O)C[C@@](O)(C(=O)CO)C[C@@H]3O[C@H]1C[C@H](N)[C@H](O)[C@H](C)O1 [Doxorubicin, reference compound]
-- reply 3.18

-- ask Provide IC50 value for the following compound: "CC(=NNc1ccc([N+](=O)[O-])cc1[N+](=O)[O-])c1ccc(NS(=O)(=O)c2ccc3oc(=O)ccc3c2)cc1"
-- reply 126

-- ask Provide IC50 value for the following compound: CC(=NNc1nc(C)cs1)c1ccc(NS(=O)(=O)c2ccc3oc(=O)ccc3c2)cc1 [Compound 11a]
-- reply 13.9

-- ask Provide IC50 value for the following compound: "O=c1ccc2cc(S(=O)(=O)Nc3ccc(S(=O)(=O)Nc4ccccn4)cc3)ccc2o1"
-- reply 22.9

-- ask Provide IC50 value for the following compound: CCOC(=O)c1sc(NN=C(C)c2ccc(NS(=O)(=O)c3ccc4oc(=O)ccc4c3)cc2)nc1C [Compound 11b]
-- reply 63.4

-- ask Provide IC50 value for the following compound: "NS(=O)(=O)c1ccc(NS(=O)(=O)c2ccc3oc(=O)ccc3c2)cc1"
-- reply 50.7

###

- System: Caco-2 colon cancer
- method.summary: In vitro anti-proliferative activity, SRB assay, Caco-2
- Assay type: cell-based, human
- measurement.context: Homo sapiens, Caco-2; 72 h incubation, SRB; mean ± SE of three experiments; read-out: IC50 Caco-2
Each entry below carries its reported pIC50.
// pIC50 here means minus log10 of the molar concentration (mol/L)

-- ask Provide pIC50 value for the following molecule: CC(=NNc1nc(-c2cc3ccccc3oc2=O)cs1)c1ccc(NS(=O)(=O)c2ccc3oc(=O)ccc3c2)cc1 [Compound 13b]
-- reply 4.01

-- ask Provide pIC50 value for the following molecule: CC(=NNc1ccc([N+](=O)[O-])cc1[N+](=O)[O-])c1ccc(NS(=O)(=O)c2ccc3oc(=O)ccc3c2)cc1 [Compound 8b]
-- reply 4.05

###

- Tested on: MCF-7 breast cancer
- method.summary: In vitro anti-proliferative activity, SRB assay, MCF-7
- Type: cell-based, human
- measurement.context: Homo sapiens, MCF7, 72 h incubation, mean ± SE of three experiments
Each entry below carries its reported pIC50.
// pIC50 here means minus log10 of the molar concentration (mol/L)

Some compounds with known pIC50 results, for comparison:
CC(=NNC1=NC(=O)C(CC(=O)O)S1)c1ccc(NS(=O)(=O)c2ccc3oc(=O)ccc3c2)cc1 (centres unmarked) [Compound 15c]
4.79
CC(=NNc1nc(-c2ccccc2)cs1)c1ccc(NS(=O)(=O)c2ccc3oc(=O)ccc3c2)cc1 [Compound 13a]
4.08

-- ask Provide pIC50 value for the following compound: CC(=NNc1nc(C)c(N=Nc2ccc(Cl)cc2)s1)c1ccc(NS(=O)(=O)c2ccc3oc(=O)ccc3c2)cc1 [Compound 11c]
-- reply 4.46

-- ask Provide pIC50 value for the following compound: "CC(=NNc1ccccc1)c1ccc(NS(=O)(=O)c2ccc3oc(=O)ccc3c2)cc1"
-- reply 4.84

###

Each entry below carries its reported pIC50.
- Tested on: HepG2 hepatocellular carcinoma
- method.summary: In vitro anti-proliferative activity, SRB assay, HepG2
- Format: cell-based, human
- measurement.context: Homo sapiens, HepG2, 72 h, 72 h incubation, SRB; mean ± SE of three experiments; read-out: IC50 HepG2
// pIC50 here means minus log10 of the molar concentration (mol/L)

Some molecules with known pIC50 results, for comparison:
CC(=NNc1nc(-c2cc3ccccc3oc2=O)cs1)c1ccc(NS(=O)(=O)c2ccc3oc(=O)ccc3c2)cc1 [Compound 13b]
4.93
CC(=NNc1ccccc1)c1ccc(NS(=O)(=O)c2ccc3oc(=O)ccc3c2)cc1 [Compound 8a]
4.57
CC(=NNc1nc(-c2ccccc2)cs1)c1ccc(NS(=O)(=O)c2ccc3oc(=O)ccc3c2)cc1 [Compound 13a]
5.46

Would you kindly look at the next entry?
-- ask Provide pIC50 value for the following molecule: CC(=NNS(=O)(=O)c1ccc(C)cc1)c1ccc(NS(=O)(=O)c2ccc3oc(=O)ccc3c2)cc1 [Compound 8d]
-- reply 4.05

###

Each entry below carries its reported IC50.
- System: Caco-2 colon cancer
- method.summary: In vitro anti-proliferative activity, SRB assay, Caco-2
- Format: cell-based, human
- measurement.context: Homo sapiens, Caco-2; 72 h incubation, SRB; mean ± SE of three experiments; read-out: IC50 Caco-2

-- ask Provide IC50 value for the following compound: "CC(=NNc1ccccc1)c1ccc(NS(=O)(=O)c2ccc3oc(=O)ccc3c2)cc1"
-- reply 8.53 µM

-- ask Provide IC50 value for the following compound: CCOC(=O)c1sc(NN=C(C)c2ccc(NS(=O)(=O)c3ccc4oc(=O)ccc4c3)cc2)nc1C [Compound 11b]
-- reply 145 µM

-- ask Provide IC50 value for the following compound: "CC(=NNc1c(Cl)cc(Cl)cc1Cl)c1ccc(NS(=O)(=O)c2ccc3oc(=O)ccc3c2)cc1"
-- reply 76.9 µM

-- ask Provide IC50 value for the following compound: CC(=NNc1nc(C)c(N=Nc2ccc(C)cc2)s1)c1ccc(NS(=O)(=O)c2ccc3oc(=O)ccc3c2)cc1 [Compound 11d]
-- reply 16.1 µM

-- ask Provide IC50 value for the following compound: CC(=NNc1nc(C)c(N=Nc2ccc(Cl)cc2)s1)c1ccc(NS(=O)(=O)c2ccc3oc(=O)ccc3c2)cc1 [Compound 11c]
-- reply 108 µM
